Target: T1, full-length human Regnase-1 with a FLAG tag on the N-terminal side and a biotin ligase BirA recognition … (human, UniProt Q5D1E8 1-599, biotinylated where required ; Biotinylated at the BirA recognition sequence where required. That sequence is not in the letters.)
T1 construct: Expressed in Expi293 cells, purified on FLAG M2 agarose and by gel filtration; also called full-length Regnase-1; human full-length Regnase-1
T1 sequence: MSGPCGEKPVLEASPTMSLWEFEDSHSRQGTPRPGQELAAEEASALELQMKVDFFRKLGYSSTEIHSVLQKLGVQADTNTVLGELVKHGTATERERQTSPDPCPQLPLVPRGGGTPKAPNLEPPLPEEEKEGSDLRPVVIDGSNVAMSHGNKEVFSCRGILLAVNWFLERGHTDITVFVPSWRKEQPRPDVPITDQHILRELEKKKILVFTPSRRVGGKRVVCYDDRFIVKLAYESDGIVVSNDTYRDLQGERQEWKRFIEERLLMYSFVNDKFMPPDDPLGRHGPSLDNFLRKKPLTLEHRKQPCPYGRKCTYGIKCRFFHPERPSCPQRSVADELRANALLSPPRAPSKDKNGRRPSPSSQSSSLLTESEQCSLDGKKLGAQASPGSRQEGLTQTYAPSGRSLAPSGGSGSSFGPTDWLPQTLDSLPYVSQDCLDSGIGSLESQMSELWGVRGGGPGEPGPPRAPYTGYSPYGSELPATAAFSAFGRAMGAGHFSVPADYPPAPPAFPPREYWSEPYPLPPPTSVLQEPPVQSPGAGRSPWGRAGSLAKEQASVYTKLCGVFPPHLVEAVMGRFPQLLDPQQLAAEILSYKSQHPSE
Experiment: AlphaScreen, blocks IKKβ binding to FL_Reg1
Positions of bridges follow the written chain, without caps; N, C: chain ends. Non-standard residues stand in square brackets, D forms with d. No end group written: not given here. NMeA = CN[C@@H](C)C(=O)O; dNMeA = CN[C@H](C)C(=O)O
measure: IC50 (µM)

Solved entries (count: 3):
Look at this binder and give its reported IC50. [dNMeA]SKYWNSWYNIWD (lactam N-13) [PP8]
7.4

Fill in the blank: the reported IC50 of [NMeA]NSWYRIWGLD (lactam N-11) [PP22] is ____.
26.8

Entry [NMeA]HSNAWYNIWD (lactam N-11) [PP5] : reported IC50 = ?
24

[I] [NMeA]NYQSWYYRSIWD (lactam N-13) [PP10]
[II] [NMeA]RFRQWKWVYPD (lactam N-12) [PP13]
Input pair: I , II . Output: entry with lower IC50. # reply format: chosen label
I
(I: 11.4 µM, II: 16.9 µM)

[I] [NMeA]WIWDFWNED (lactam N-10) [PP24]
[II] [NMeA]YIWDFFGDLD (lactam N-11) [PP4]
[III] [NMeA]NFNSAYYRAIWD (lactam N-13) [PP7]
[IV] [NMeA]VFYKIWYNWD (lactam N-11) [PP19]
// smallest IC50 at index 0, largest at the end Answer by listing the labels in the requested order.
IV, I, III, II
(IV: 5.8 µM, I: 8.8 µM, III: 15.1 µM, II: 47.7 µM)
